System: 3T3 cells
Assay: MTT cell proliferation assay, 3T3
Assay type: cell-based, mouse
Conditions: Mus musculus, NIH3T3, 3T3 cells, approximately 64-72 hours incubation; read-out: MTT Assay IC50, 3T3
Procedure: The MTT cell proliferation assay was used to study the cytotoxic properties of the compounds. The assay was performed according to the method described by Roche Molecular Biochemicals, with minor modifications. […] After solubilization, the formazan dye was quantitated using a scanning multi-well spectrophotometer (ELISA reader). […] All optical densities were measured at 490 nm using a Vmax Kinetic Microplate Reader (Molecular Devices). […]
Entries and their measured IC50 follow.

{"columns": ["Molecule", "IC50"],
 "data": [
  ["Nc1ccc(/C=C/C(=O)NCC2Cc3cc(-c4ccc(C(=O)N5CCOCC5)c(F)c4)cc(Cl)c3O2)cn1 (centres unmarked)", "0.1 to 5 µM"],
  ["CC(=O)c1ccc(-c2cc(Cl)c3c(c2)CC(CNC(=O)/C=C/c2c(C)nn(-c4ccc(F)cc4)c2Cl)O3)s1 (centres unmarked)", "> 30 µM"],
  ["Nc1ccc(/C=C/C(=O)NCC2Cc3cc(-c4ccc(C(=O)N5CCOCC5)cc4)cc(Cl)c3O2)cn1 (centres unmarked)", "0.1 to 5 µM"],
  ["CC(=O)c1ccc(-c2cc(Cl)c3c(c2)CC(CNC(=O)/C=C/c2ccc(-c4ccc(F)cc4)s2)O3)s1 (centres unmarked)", "> 30 µM"],
  ["Nc1ccc(/C=C/C(=O)NCC2Cc3cc(-c4ccc(C(=O)NNc5cnccn5)cc4)cc(Cl)c3O2)cn1 (centres unmarked)", "0.1 to 5 µM"],
  ["Nc1ccc(/C=C/C(=O)NCC2Cc3cc(-c4ccc(C(=O)N5CCOCC5)cn4)cc(Cl)c3O2)cn1 (centres unmarked)", "5 to 30 µM"],
  ["Nc1ccc(/C=C/C(=O)NCC2Cc3cc(-c4ccc(C(=O)N5CCOCC5)nn4)cc(Cl)c3O2)cn1 (centres unmarked)", "5 to 30 µM"],
  ["Nc1ccc(/C=C/C(=O)NCC2Cc3cc(-c4ccc(C(=O)N5CC(F)(F)C5)c(F)c4F)cc(Cl)c3O2)cn1 (centres unmarked)", "0.1 to 5 µM"],
  ["Nc1ccc(/C=C/C(=O)NCC2Cc3cc(-c4ccc(C(=O)N5CCOCC5)cc4)cc(O)c3O2)cn1 (centres unmarked)", "0.1 to 5 µM"],
  ["Nc1ccc(/C=C/C(=O)NCC2Cc3c(-c4ccc(C(=O)N5CCOCC5)cn4)ccc(Cl)c3O2)cn1 (centres unmarked)", "0.1 to 5 µM"],
  ["CC(=O)c1ccc(-c2cc(Cl)c3c(c2)CC(CNC(=O)/C=C/c2ccn(C)c2)O3)s1 (centres unmarked)", "> 30 µM"],
  ["Nc1ccc(CNC(=O)/C=C/C2Cc3cc(-c4ccccc4S(=O)(=O)N4CCOCC4)cc(Cl)c3O2)cn1 (centres unmarked)", "< 0.1 µM"],
  ["CC(=O)c1sc(-c2cc(Cl)c3c(c2)CC(CNC(=O)/C=C/c2ccc(N)nc2)O3)c(C)c1C (centres unmarked)", "5 to 30 µM"],
  ["CC(=O)c1ccc(-c2cc(Cl)c3c(c2)CC(CNC(=O)/C=C/c2csc(-c4ccc(F)cc4)n2)O3)s1 (centres unmarked)", "> 30 µM"]
]}

---

# reported pIC50; entries follow
system: 3T3 cells; experiment: MTT cell proliferation assay, 3T3; type: cell-based, mouse; settings: Mus musculus, NIH3T3, read-out: MTT Assay IC50, 3T3
pIC50: −log10 of the molar value. Where a name gives a salt, the structure may show the parent alone.

{"columns": ["Molecule", "pIC50"],
 "data": [
  ["CC(=O)Nc1ccc(/C=C/C(=O)NCC2Cc3cc(-c4ccc(C(C)=O)s4)cc(Cl)c3O2)cn1 (stereo not shown) [Compound 315]", "< 4.52"],
  ["CC(=O)c1ccc(-c2cc(Cl)c3c(c2)CC(CNS(=O)(=O)/C=C/c2cccnc2)O3)s1 (stereo not shown) [Compound 310]", "< 4.52"],
  ["CC(=O)c1ccc(-c2cc(Cl)c3c(c2)CC(CNC(=O)/C(C#N)=C/c2ccoc2)O3)s1 (stereo not shown) [Compound 286]", "< 4.52"],
  ["Nc1ccc(/C=C/C(=O)NCC2Cc3cc(-c4ccc(C(=O)N5CCNCC5)cc4)cc(Cl)c3O2)cn1 (stereo not shown) [Compound 246, dihydrochloride]", "5.30 to 7.00"],
  ["Nc1ccc(/C=C/C(=O)NCC2Oc3c(Cl)cc(-c4ccc(C(=O)N5CCOCC5)cc4)cc3C2=O)cn1 (stereo not shown) [Compound 348]", "5.30 to 7.00"],
  ["CC(=O)c1ccc(-c2cc(Cl)c3c(c2)CC(CNC(=O)/C=C/c2ccc(O)nc2)O3)s1 (stereo not shown) [Compound 311]", "< 4.52"],
  ["COc1cc(-c2ccc(C(=O)N3CCOCC3)cc2)cc2c1OC(CNC(=O)/C=C/c1ccc(N)nc1)C2 (stereo not shown) [Compound 345]", "> 7.00"]
]}

Data origin, for the record: patent US9938258B2
